# Target Entity: Large T antigen (Simian virus 40) (UniProt P03070)
# Sequence (P03070 whole entry, looked up): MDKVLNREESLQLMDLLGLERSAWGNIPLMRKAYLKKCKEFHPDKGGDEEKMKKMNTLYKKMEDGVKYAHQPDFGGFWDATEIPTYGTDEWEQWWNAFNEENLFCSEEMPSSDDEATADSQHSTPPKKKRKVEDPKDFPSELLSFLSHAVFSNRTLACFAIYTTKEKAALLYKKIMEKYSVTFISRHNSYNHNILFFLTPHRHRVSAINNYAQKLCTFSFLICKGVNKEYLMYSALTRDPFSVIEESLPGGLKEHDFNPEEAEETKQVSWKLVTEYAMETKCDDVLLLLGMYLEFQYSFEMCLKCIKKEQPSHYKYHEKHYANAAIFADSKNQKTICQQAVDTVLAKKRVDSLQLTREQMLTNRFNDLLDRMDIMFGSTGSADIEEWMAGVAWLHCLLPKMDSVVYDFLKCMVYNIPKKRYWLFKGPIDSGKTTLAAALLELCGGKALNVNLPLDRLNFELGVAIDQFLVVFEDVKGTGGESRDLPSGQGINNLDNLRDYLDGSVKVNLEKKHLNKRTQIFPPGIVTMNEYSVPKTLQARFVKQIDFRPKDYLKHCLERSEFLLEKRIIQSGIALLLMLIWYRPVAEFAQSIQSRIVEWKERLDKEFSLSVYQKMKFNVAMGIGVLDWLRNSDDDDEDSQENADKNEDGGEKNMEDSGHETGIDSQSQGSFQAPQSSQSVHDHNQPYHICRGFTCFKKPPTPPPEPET
# Assay Details: SV40 large T antigen inhibitors, biochemical (AID 1903)
# Test Context: SV40 large T antigen ATPase/helicase inhibition assay; at 20 µM; active compounds read high
The whole screen tested about 310,000 compounds, of which about 1,200 (0.39%) were called active. Not all results are given here. Entries with a potency or affinity are not part of this list.
Label label 0 if inhibition falls below 10%; label label 1 in every other case.

Look over these answered cases.
Inquiry: Does inhibition meet or surpass 10% for CCN1CCc2c(OCC(=O)Nc3ccc4c(c3)OCCO4)cccc2C1=O ?
Reply text: label 0

Inquiry: Does inhibition meet or surpass 10% for COc1ccccc1Nc1nc(N)nc(CN2CCN(Cc3ccc4c(c3)OCO4)CC2)n1 ?
Reply text: label 1

Inquiry: Does inhibition meet or surpass 10% for COc1cccc(CN2CCCC(N3CCc4ccccc4C3)C2)c1O (stereo unspecified) ?
Reply text: label 1

Inquiry: Does inhibition meet or surpass 10% for Cc1ccc(C(=O)CN(Cc2ccccc2)C2=NCCS2)cc1 ?
Reply text: label 0

Continuing:
Inquiry: Does inhibition meet or surpass 10% for Cc1ccc(C(=O)Cn2nnc(-c3ccccc3)n2)cc1 ?
Reply text: label 0

* * *

# Target Entity: Large T antigen (Simian virus 40)
# Assay Details: SV40 large T antigen inhibitors, biochemical (AID 1903)
# Test Context: SV40 large T antigen ATPase/helicase inhibition assay; at 20 µM; active compounds read high
Hit rate of the full screen: of about 310,000 compounds, about 1,200 (0.39%) were called active. A selection follows. Potency and affinity values are given separately.
Property: inhibition (%)
The figure you give is taken to be in %; do not add the unit.

Inquiry: Checklist item: inhibition tested on Large T antigen (Simian virus 40), entry Cc1ccc(/C=N/NC(=O)c2nc3nc(C)cc(C)n3n2)cc1 , value?
Reply text: 22.5

Continuing:
Inquiry: Checklist item: inhibition tested on Large T antigen (Simian virus 40), entry CCN(C(=O)Cn1cnc2c(nc3n2CCCCC3)c1=O)c1cccc(Cl)c1 , value?
Reply text: 18.9

Inquiry: Checklist item: inhibition tested on Large T antigen (Simian virus 40), entry CSCc1cc(N2CCOCC2)nc(-c2ccccc2)n1 , value?
Reply text: 9.12

Inquiry: Checklist item: inhibition tested on Large T antigen (Simian virus 40), entry Cc1ccccc1-n1nnnc1SCC(=O)Nc1ccc(S(=O)(=O)N2CCCC2)cc1 , value?
Reply text: -7.07

Inquiry: Checklist item: inhibition tested on Large T antigen (Simian virus 40), entry COc1cccc(/C=C2\C(=O)N(c3cccc(C)c3)C(=O)c3ccccc32)c1 , value?
Reply text: 11

Inquiry: Checklist item: inhibition tested on Large T antigen (Simian virus 40), entry COc1ccc(NC(=O)C(CCS(C)(=O)=O)N2C(=O)c3ccccc3C2=O)cc1 (stereo unspecified) , value?
Reply text: 11.7

Inquiry: Checklist item: inhibition tested on Large T antigen (Simian virus 40), entry CCCCOC(=O)/C=C/c1ccc(OC(=O)OC)c(OC(=O)OC)c1 , value?
Reply text: 15.3

Inquiry: Checklist item: inhibition tested on Large T antigen (Simian virus 40), entry Cc1c(C(=O)N2CCOCC2)c(S(=O)(=O)Nc2ccc(OC(F)(F)F)cc2)c(C)n1C , value?
Reply text: 4.66

* * *

Reported inhibition values follow for various compounds
# Target Entity: Large T antigen (Simian virus 40) (UniProt P03070)
# Assay Details: SV40 large T antigen inhibitors, biochemical (AID 1903)
# Test Context: SV40 large T antigen ATPase/helicase inhibition assay; at 20 µM; active compounds read high
The whole screen tested about 310,000 compounds, of which about 1,200 (0.39%) were called active. These entries were drawn from the full list. Measured potencies and affinities stand elsewhere.
The figure you give is taken to be in %; do not add the unit.

Inquiry: Which inhibition is reported for this compound? O=C(CSc1nc(-c2ccco2)cc(C(F)(F)F)n1)Nc1ccccc1C(F)(F)F
Reply text: 13.3

Inquiry: Which inhibition is reported for this compound? O=C(CN1CCC(C(=O)c2ccc(F)cc2)CC1)Nc1ccc(F)cc1
Reply text: 3.44

Inquiry: Which inhibition is reported for this compound? COc1cccc(C(=O)C2CCCN(Cc3cn(C)nc3-c3ccccc3)C2)c1 (stereo not given)
Reply text: -3.2

Inquiry: Which inhibition is reported for this compound? Cc1ccc(NC(=O)c2ccc(F)cc2)cc1S(=O)(=O)N1CCCCCC1
Reply text: 7.24

Attention now shifts to the item below.
Inquiry: Which inhibition is reported for this compound? O=C(CN1CCN(C2CCCCC2)CC1)Nc1ccc(Br)cc1
Reply text: 3.84
